FYI, the data here is from patent US6960653B2.

System: IgG fraction of anti-ampicillin antiserum (antibodies raised against the hapten-BSA immunogen of Example 2)
Conditions: Assay 1; % CR = IC50amp/IC50pen x 100
OBSERVABLE: % CR, Assay 1 (%)
Give bare numbers, in %.

CC1(C)S[C@@H]2[C@H](NC(=O)Cc3ccccc3)C(=O)N2[C@H]1C(=O)O	63
CC1(C)SC2C(NC(=O)C(N)c3ccc(O)cc3)C(=O)N2C1C(=O)O (stereo not drawn)	94
Cc1onc(-c2ccccc2Cl)c1C(=O)N[C@@H]1C(=O)N2[C@@H]1SC(C)(C)[C@@H]2C(=O)O	50
CC1(C)S[C@@H]2[C@H](NC(=O)[C@H](N)c3ccccc3)C(=O)N2[C@H]1C(=O)O	100
Cc1onc(-c2ccccc2)c1C(=O)N[C@@H]1C(=O)N2[C@@H]1SC(C)(C)[C@@H]2C(=O)O	42.5

Attention now turns to another entry.
Record request: % CR, Assay 1 value, item `Cc1onc(-c2c(Cl)cccc2Cl)c1C(=O)N[C@@H]1C(=O)N2[C@@H]1SC(C)(C)[C@@H]2C(=O)O` 45
